- Test system: SK-MEL-28 melanoma
- procedure_details: NCI tumour cell line growth inhibition, 48 h
Where TGI equals or exceeds 10 µM, the correct label is Y; where it does not, the label is N.

Please review the following examples before continuing.
compound | target_of_assay | discrete_label
C=C1C(O)C2C(=C(CCC3CC3)C13CC3)C(=O)C(C)(C)C2O (stereo not drawn) | SK-MEL-28 melanoma | Y
Cc1cccc2c(NCCCN(C)C)c3c([N+](=O)[O-])ccc(C)c3nc12 | SK-MEL-28 melanoma | N
C=C(C(=O)OC)N1C(=O)CC(C)C1=O (stereo not drawn) | SK-MEL-28 melanoma | Y
CC1CC2(OC2C)C(=O)OC2CCN(C)C/C=C(/COC(=O)C1(C)O)C2=O (stereo not drawn) | SK-MEL-28 melanoma | Y

Is TGI at least 10 µM? Consider `COC(=O)c1cnc(Cl)c([N+](=O)[O-])c1`
Y

Is TGI at least 10 µM? Consider `COc1cc2c3c(n(CCCNC4=NCCS4)c(=O)c2cc1OC)-c1cc2c(cc1C3=O)OCO2`
N

Is TGI at least 10 µM? Consider `Cn1nc(-c2cccc(-c3nn(C)c(=NCCO)s3)n2)sc1=NCCO`
Y

Is TGI at least 10 µM? Consider `CCCCCCN1CCc2c(C)c(C#N)c3nc4ccccc4n3c21`
Y

Is TGI at least 10 µM? Consider `O=C(NC(=S)Nc1ccc2c(c1)Sc1ccccc1O2)c1ccccc1`
Y

Is TGI at least 10 µM? Consider CCC(C)NC(=S)N/N=C(\C)c1nc2ncccc2[nH]1 (stereo not drawn)
Y

Is TGI at least 10 µM? Consider `COc1ccc(-c2cc(=O)c3c(O)cc(O)cc3o2)cc1OC`
Y

Is TGI at least 10 µM? Consider O=C1OCC2=C1C(c1ccc3c(c1)OCO3)c1cc3c(cc1O2)OCO3 (stereo not drawn)
Y

Is TGI at least 10 µM? Consider COc1ccc(C2C=C(c3ccc(OC)c(OC)c3)N=C3SC=CN32)c(Br)c1 (stereo not drawn)
N

Is TGI at least 10 µM? Consider `OC(CC(CC(O)(C(F)(F)F)C(F)(F)F)=NN=C(CC(O)(C(F)(F)F)C(F)(F)F)CC(O)(C(F)(F)F)C(F)(F)F)(C(F)(F)F)C(F)(F)F`
Y

Is TGI at least 10 µM? Consider O=C1OC2C=CCC1C2 (stereo not drawn)
Y

Is TGI at least 10 µM? Consider `O=C(Nc1ccc(Cl)cc1)Nc1ccc(Cl)c(C(F)(F)F)c1`
Y

Is TGI at least 10 µM? Consider `O=c1oc2ccc(Cl)cc2c2ccccc12`
Y

Is TGI at least 10 µM? Consider `O=C1C=C(Nc2ccc(Br)cc2)c2ccccc2C1=O`
Y

###

- Test system: 786-0 renal
- procedure_details: NCI tumour cell line growth inhibition, 48 h
Item-by-item account of TGI

compound | target_of_assay | quantity_kind | meas_value
COC(=O)c1cnc(Cl)c([N+](=O)[O-])c1 | 786-0 renal | TGI | 11.2 µM
CC(CCOc1ccc2ccc(=O)oc2c1)C1=CC(=O)C(C)(C)O1 (configuration not stated) | 786-0 renal | TGI | 7.69 µM
Cc1nn2c(/C=N/N=C(N)N)c(-c3ccc(Cl)c([N+](=O)[O-])c3)nc2s1 | 786-0 renal | TGI | 0.442 µM
C[C@]12CCC(N3CCCC3)CC1=CC[C@@H]1[C@@H]2CC[C@]2(C)C(O)[C@H](n3ccnc3)C[C@@H]12 (some centres not stated) | 786-0 renal | TGI | > 100 µM
O=S1OC[C@H](CCCl)O1 (some centres not stated) | 786-0 renal | TGI | > 100 µM

For the compound `O=C(O)c1ccc(NCc2nc3cc(Cl)c(Cl)cc3[nH]2)cc1` , give its reported TGI.
> 100 µM

For the compound CC1CC2(OC2C)C(=O)OC2CCN(C)C/C=C(/COC(=O)C1(C)O)C2=O (configuration not stated) , give its reported TGI.
> 100 µM

For the compound C=C(C(=O)OC)N1C(=O)CC(C)C1=O (configuration not stated) , give its reported TGI.
23.5 µM

For the compound `Nn1c(SCC(=O)O)nc2ccccc2c1=O` , give its reported TGI.
> 100 µM

For the compound Cc1ccc(S(=O)(=O)C(CC(NC=O)S(=O)(=O)c2ccc(C)cc2)NC=O)cc1 (configuration not stated) , give its reported TGI.
> 100 µM

For the compound `S=c1[nH]nc(-c2ccccc2)n1/N=C\c1ccc(-c2ccc(Cl)cc2)o1` , give its reported TGI.
> 100 µM

For the compound `CCCCOC(=O)CC(CC(=O)OCCCC)(OC(C)=O)C(=O)OCCCC` , give its reported TGI.
> 200 µM

For the compound OC(COc1cccc2ccccc12)CN1CCOCC1 (configuration not stated) , give its reported TGI.
> 100 µM

For the compound `O=C(NC(=S)Nc1ccc2c(c1)Sc1ccccc1O2)c1ccccc1` , give its reported TGI.
48.1 µM

For the compound COc1ccc(C2SC(N)=Nc3c2c(C)nn3C(=O)Cc2ccccc2)cc1 (configuration not stated) , give its reported TGI.
> 100 µM

###

- Tested on: HS 578T breast
- procedure_details: NCI tumour cell line growth inhibition, 48 h; in the data active = GI50 below about 0.43 µM; inactive = the rest
Log the outcome using a class from active, inactive

Please review the following examples before continuing.
compound | discrete_label
CC(=O)N1CCC(Nc2ncc3cc(Oc4ccc(F)cc4F)c(=O)n(C)c3n2)CC1 | inactive
O=C1/C=C/[C@@H](O)[C@@H]2C[C@@H](O)C[C@H]2/C=C/CCC[C@H](CCc2ccccc2)O1 | active
Nc1c(C(=O)c2cccc(OC[C@@H](O)CO)c2)cnn1-c1ccc(F)cc1 | inactive
Cc1ccc(C2=Nc3c(N)nc(N)nc3NC(c3cccc(Nc4ccnc5cc(C(F)(F)F)ccc45)c3)C2)cc1 (stereo not given) | inactive
Cc1ccc(C2=NN(c3ccc(S(C)(=O)=O)cc3)C(=O)CC2)cc1 | inactive
CC(=O)Oc1cc(C(C)C)c(OCCN(C)C)cc1C | inactive
c1ccc2nc(N/N=C3\CCCCC3C3CCCCC3)ccc2c1 (stereo not given) | inactive
Cc1cc(Cl)ccc1OCc1nn2c(CCCCc3nnc4sc(COc5ccc(Cl)cc5C)nn34)nnc2s1 | inactive

Which outcome was assigned to `O=c1ccccc(-c2ccc(Br)cc2)c1O` in this test?
inactive

Which outcome was assigned to `Cc1cc2cn3c4ccc(O)cc4nc(N)c3c2cc1C` in this test?
active

###

Item-by-item account of TGI
- Tested on: RXF 393 renal
- procedure_details: NCI tumour cell line growth inhibition, 48 h

test_smiles | target_of_assay | TGI
CCCCCCCCCCCC(=O)NCc1ccc(OC(=O)CCCCCCCCCCC)c(OC)c1 | RXF 393 renal | > 100 µM
O=C(CN(/C=C/C(=O)C(F)(F)F)c1ccc(Cl)cc1)c1ccc(F)cc1 | RXF 393 renal | > 100 µM

Please turn your attention to the following entry.
State the measured TGI (RXF 393 renal) of `COc1cc(-c2nc3ccc(N4CCN(C)CC4)cc3[nH]2)c(OC)c2[nH]c(CO)nc12`
> 100 µM

###

- System: HCT-116 colon
- procedure_details: NCI tumour cell line growth inhibition, 48 h
quantity_kind: TGI

Guide cases for TGI, answers given:
compound | TGI
CCNc1cnc2c(n1)c(=O)n(C)c(=O)n2C | > 100 µM
CCOC(=O)[C@H]1Nc2ccc(Cl)cc2[C@H]2CCC[C@@H]12 | > 100 µM

For the compound `CN(C)c1ccc(/C=C2\C[C@H]3[C@@H]4CC=C5C[C@@H](O)CC[C@]5(C)[C@H]4CC[C@]3(C)C2=O)cc1` , give its reported TGI.
> 100 µM

For the compound COC1=CC(=O)c2c(cc(COP(N)(=O)N(CCBr)CCBr)n2C)C1=O (centres undefined) , give its reported TGI.
0.131 µM

###

- Test system: NCI-H23 lung
- procedure_details: NCI tumour cell line growth inhibition, 48 h
quantity_kind: TGI

For the molecule `Cc1cc(Cl)ccc1OCc1nn2c(CCCCc3nnc4sc(COc5ccc(Cl)cc5C)nn34)nnc2s1` , give its reported TGI.
> 100 µM

For the molecule `Cc1nc2c(=O)[nH]ncc2[nH]1` , give its reported TGI.
> 100 µM

For the molecule O=C(c1ccccc1)c1ccc2cccc(OC3OC(CO)C(O)C(O)C3O)c2n1 (configuration not stated) , give its reported TGI.
> 100 µM

For the molecule `C=CCc1cccc2cc(C(=O)NC3CCCCC3)c(=N)oc12` , give its reported TGI.
51.8 µM

For the molecule `Cc1[nH]c(=O)nc2nc3ccc(Cl)cc3c(N(CCO)CCO)c12` , give its reported TGI.
> 100 µM

For the molecule Cc1ccc(O)c(C2=CC3=NNC(=O)C3C(c3cccc(Br)c3)C2)c1 (configuration not stated) , give its reported TGI.
> 75 µM

For the molecule `CC(=O)Nc1ccc(C2C(C(=O)Nc3ccccc3)=C(C)NC(C)=C2C(=O)Nc2ccccc2)cc1` , give its reported TGI.
> 100 µM

For the molecule `C[C@@H](O)CCC(=O)c1ccoc1` , give its reported TGI.
> 100 µM

For the molecule COC1=CC(=O)c2c(cc(COP(N)(=O)N(CCBr)CCBr)n2C)C1=O (configuration not stated) , give its reported TGI.
2.67 µM
